Hello, the source for this data is PubChem BioAssay AID1996, in case you need it.

Measured solubility kinetic by item
- Condition: buffer; pH 7.4; 200.0 µM
Answer with a number only, understood to be in µg/mL.

Example results:
Structure Smiles	solubility kinetic (µg/mL)
Cn1c(=O)c([N+](=O)[O-])c(NCc2ccc3c(c2)OCO3)c2ccccc21	0.9
Cn1c(NC(=O)c2ccccc2)nc2ccccc21	13
CC(=O)c1cccc(NC(=O)CCCSc2ccccc2)c1	2.9
Cc1ccc(S(=O)(=O)NC2CC(C)(C)NC(C)(C)C2)c(C)c1C	42.6
COc1cc(C(=O)NC(=S)N(CCC#N)Cc2cccnc2)cc(OC)c1OC	59.3
COc1cc(NC(=S)N(C)CCC#N)c(OC)cc1Cl	38.9
N#Cc1ccccc1OCC(=O)Nc1ccc(S(=O)(=O)N2CCOCC2)cc1	6.9

Input Cc1cccc(C(=O)OCC(=O)c2csc(N3CCCCC3)n2)c1[N+](=O)[O-] , output reported solubility kinetic. 2.8
